// data source = paper PMC10916382

Hi there, I'd appreciate the recorded viability for every entry that follows.
- test: in vitro
Counter-ions that a name gives are not always drawn.
Please state the figure in %; there is no need to write the unit.

# input Data request, read-out viability, for COc1cccc2c1C(=O)c1c(O)c3c(c(O)c1C2=O)C[C@@](O)(C(=O)CO)C[C@@H]3O[C@H]1C[C@H](N2CCO[C@H](OC)C2)[C@H](O)[C@H](C)O1 [NEMORUBICIN]
# output 16.5

# input Data request, read-out viability, for COC(=O)C1=C(C)NC(C)=C(C(=O)OCCCN2CCC(c3ccccc3)(c3ccccc3)CC2)[C@@H]1c1cccc([N+](=O)[O-])c1 [RFM-003-515-4]
# output 92.9

# input Data request, read-out viability, for CNc1cc(OC)c(C(=O)N[C@@H]2CCN(Cc3ccccc3)[C@@H]2C)cc1Cl [RFM-000-360-1]
# output 109

# input Data request, read-out viability, for CN(C)CCOc1ccc(/C(=C(/CCCl)c2ccccc2)c2ccccc2)cc1 [TOREMIFENE CITRATE]
# output 95.3

# input Data request, read-out viability, for CS[C@H]1SC[C@H]2C(=O)N(C)[C@@H](C(C)C)C(=O)OC[C@@H](NC(=O)c3cnc4ccccc4n3)C(=O)N[C@@H](C)C(=O)N(C)[C@@H]1C(=O)N(C)[C@@H](C(C)C)C(=O)OC[C@@H](NC(=O)c1cnc3ccccc3n1)C(=O)N[C@@H](C)C(=O)N2C [Echinomycin]
# output 95.2
